# cell viability values compiled below
System: Vero E6
Assay: cell viability relative to DMSO; higher = less toxic
Details: 72 h; 100 nM
reported-metric: cell viability (%)

molecule=Cc1c(C)c2c(c(C)c1OC(=O)CCC(=O)OCCO)CC[C@@](C)(CCC[C@H](C)CCC[C@H](C)CCCC(C)C)O2 measured_number=95.9
molecule=COc1ccc2c(OCc3nnc4ccc(-c5ccccc5)nn34)ccnc2c1 measured_number=93.9
molecule=NCC1(CC(=O)O)CCCCC1 measured_number=89.3
molecule=CO[C@H](C(=O)[C@@H](O)[C@@H](C)O)[C@@H]1Cc2cc3cc(O[C@H]4C[C@@H](O[C@H]5C[C@@H](O)[C@H](O)[C@@H](C)O5)[C@@H](O)[C@@H](C)O4)c(C)c(O)c3c(O)c2C(=O)[C@H]1O[C@H]1C[C@@H](O[C@H]2C[C@@H](O[C@H]3C[C@](C)(O)[C@H](O)[C@@H](C)O3)[C@H](O)[C@@H](C)O2)[C@H](O)[C@@H](C)O1 measured_number=95.6
molecule=O=C(Nc1ccccc1)[C@]12C[C@H]1/C(=N\O)c1ccccc1O2 measured_number=102
molecule=Nc1nc(N)c2nc(-c3cccc(O)c3)cnc2n1 measured_number=97.7
molecule=CN(C)C(=O)C(=O)c1cn(C)c2cc(Cl)c(C(=O)N3CCC(Cc4ccc(F)cc4)CC3)cc12 measured_number=100
molecule=O=C1C(Cl)=C(NCCN2CCOCC2)C(=O)c2ncccc21 measured_number=100
molecule="O=C(C=Cc1ccccc1)NC(NC(=S)Nc1ccc(Cl)cc1)C(Cl)(Cl)Cl (centres undefined)" measured_number=100

---

Property: cell viability; scope: individual compounds
Test system: Caco-2
Assay: cell viability relative to DMSO; higher = less toxic
Conditions: 72 h; 10 nM
reported-metric: cell viability

compound="COc1ccc(CC(=O)NC(/N=C(\\NC#N)Nc2cccc3ncccc23)C(C)(C)C)cc1OC (centres undefined)" result=97.8%
compound="CC(O)c1cc(C(=O)N[C@@H](C)Cn2ccc(-c3ccc(C#N)c(Cl)c3)n2)n[nH]1 (some centres undefined)" result=89.8%
compound="Cc1cc(Oc2ccc3nc(COc4ccc(CC5SC(=O)NC5=O)cc4)n(C)c3c2)cc(C)c1N (centres undefined)" result=97.6%
compound=O=C(c1ccc(/C=C/c2n[nH]c3ccccc23)cc1)N1CCNCC1 result=98.6%

---

Below, each of the compounds is paired with its reported cell viability value.
System: U2OS
Assay: cell viability relative to DMSO; higher = less toxic
Details: 72 h; 1000 nM
reported-metric: cell viability (%)

compound="C[C@@H](O)[C@@H]1NC(=O)[C@H](CCCCN)NC(=O)[C@@H](Cc2c[nH]c3ccccc23)NC(=O)[C@H](Cc2ccccc2)NC(=O)[C@@H](NC(=O)[C@H](N)Cc2ccccc2)CSSC[C@@H](C(=O)N[C@H](CO)[C@@H](C)O)NC1=O [octreotide]" uom=% measured_number=102
compound="Oc1cc2c(cc1O)C(c1ccccc1)CNCC2 (stereo not drawn)" uom=% measured_number=104
compound=COc1ccc(-c2cc(=O)c3c(OC)c(OC)c(OC)c(OC)c3o2)cc1 uom=% measured_number=97.4
compound="CC(C)C(N)=O [isobutyramide]" uom=% measured_number=98.8
compound=O=C(NOCCO)c1ccc2cncn2c1Nc1ccc(I)cc1F uom=% measured_number=62
compound=Cc1c(C2CCN(CCc3ccccc3)CC2)noc1-c1ccc(Cl)cc1 uom=% measured_number=97.3
compound=O=c1ccc2c(OCCCCOc3ccccc3)c3ccoc3cc2o1 uom=% measured_number=104
compound="CC(C)(C)NCC(O)COc1cc(Cl)ccc1Cl (stereo not drawn)" uom=% measured_number=97.1

---

drug-induced phospholipidosis by entry:
System: A549-ACE2
Assay: drug-induced phospholipidosis relative to tamoxifen; higher = more phospholipidosis
Details: 10 µM; 72 h
reported-metric: drug-induced phospholipidosis

compound=CC(C)(C)Cn1c(N)nc2ccc(-c3[nH]c(C(C)(C)C)nc3-c3ccc(F)cc3)nc21 result=27%
compound="CCCCCCCCc1ccc(CCC(N)(CO)CO)cc1 [fingolimod]" result=130%
compound="FC(F)(F)c1ccc(CNc2ccc(Cc3c[nH]c4ncc(Cl)cc34)cn2)cn1 [pexidartinib]" result=15.6%
compound="c1ccc(-c2ccc(C(c3ccccc3)n3ccnc3)cc2)cc1 (centres undefined) [bifonazole]" result=19.7%

---

# Lookup of reported drug-induced phospholipidosis keyed by entry
System: A549-ACE2
Test: drug-induced phospholipidosis relative to tamoxifen; higher = more phospholipidosis
Conditions: 3.33333 µM; 48 h
reported-metric: drug-induced phospholipidosis (%)

molecule=CC(C)(C)Cn1c(N)nc2ccc(-c3[nH]c(C(C)(C)C)nc3-c3ccc(F)cc3)nc21 reported_metric="drug-induced phospholipidosis" uom=% measured_number=5.06
molecule=CC(=O)N(O)[C@@H]1c2cc(C#N)ccc2OC(C)(C)[C@H]1O reported_metric="drug-induced phospholipidosis" uom=% measured_number=-0.21
molecule="c1ccc(-c2ccc(C(c3ccccc3)n3ccnc3)cc2)cc1 (stereo not given) [bifonazole]" reported_metric="drug-induced phospholipidosis" uom=% measured_number=2.93
molecule="C=C1C(=O)O[C@@H]2/C=C(\\C)CC/C=C(\\C)CC[C@@H]12 [costunolide]" reported_metric="drug-induced phospholipidosis" uom=% measured_number=0.025
molecule="C[C@@H]1C[C@H]2[C@@H]3CCC4=CC(=O)C=C[C@]4(C)[C@@]3(Cl)[C@@H](O)C[C@]2(C)[C@@]1(OC(=O)c1ccco1)C(=O)CCl [MOMETASONE FUROATE]" reported_metric="drug-induced phospholipidosis" uom=% measured_number=27.7

---

Tested on: HepG2
Experiment: drug sensitivity score (DSS) for viability; higher = more toxic; extreme values may be limits of the assay
Conditions: 72 h
Classify by measured drug sensitivity score: condition met if it is equal to or exceeds 0.4, condition not met if it is smaller.

molecule="CC(C)[C@@H](CN1CC[C@@](C)(c2cccc(O)c2)[C@@H](C)C1)NC(=O)[C@H]1Cc2ccc(O)cc2CN1 [JDTic]" label_value="condition not met"
molecule="Cc1ccsc1C(=CCCN1CCC[C@@H](C(=O)O)C1)c1sccc1C [tiagabine]" label_value="condition not met"
molecule="CN1CCN(CC/C=C2/c3ccccc3Sc3ccc(S(=O)(=O)N(C)C)cc32)CC1 [thiothixene]" label_value="condition met"
molecule="CCS(=O)(=O)N1CC(CC#N)(n2cc(-c3ncnc4[nH]ccc34)cn2)C1 [baricitinib]" label_value="condition not met"
molecule="COc1ccc2c(OCc3nnc4ccc(-c5ccccc5)nn34)ccnc2c1 [AMG-208]" label_value="condition not met"
molecule="CCN(C(C)=O)c1cccc(-c2ccnc3c(C#N)cnn23)c1 [ZALEPLON]" label_value="condition not met"
molecule="O=C(O)/C=C/CO [trans-4-hydroxycrotonic-acid]" label_value="condition not met"
molecule="COC(=O)C1=C(C)NC(C)=C([N+](=O)[O-])[C@@H]1c1ccccc1C(F)(F)F (racemic) [BAY-K-8644-(+/-)]" label_value="condition not met"
molecule="CCN(CC)C(=O)N[C@H]1C[C@@H]2c3cccc4[nH]cc(c34)C[C@H]2N(C)C1 [terguride]" label_value="condition not met"
molecule="C[C@@H](O)[C@@H]1NC(=O)[C@H](CCCCN)NC(=O)[C@@H](Cc2c[nH]c3ccccc23)NC(=O)[C@H](Cc2ccccc2)NC(=O)[C@@H](NC(=O)[C@H](N)Cc2ccccc2)CSSC[C@@H](C(=O)N[C@H](CO)[C@@H](C)O)NC1=O [octreotide]" label_value="condition not met"
molecule="CC(C)C[C@H](NC(=O)CNC(=O)c1cc(Cl)ccc1Cl)B1OC(=O)C(CC(=O)O)(CC(=O)O)O1 [MLN9708]" label_value="condition met"
molecule=COc1[nH]c2ccc(F)cc2c1C(=O)OCC1CCN(CCNS(C)(=O)=O)CC1 label_value="condition not met"
molecule="N#Cc1ncccn1 [2-cyanopyrimidine]" label_value="condition not met"
molecule="CCCC[C@H]1C(=O)N(c2ccccc2)N(c2ccc(O)cc2)C1=O [oxyphenbutazone]" label_value="condition met"
molecule="CC(=O)O[C@H]1Cc2ccccc2N(C(N)=O)c2ccccc21 [eslicarbazepine-acetate]" label_value="condition not met"
molecule="COc1cc(CCc2cc(NC(=O)c3ccc(N4CC(C)NC(C)C4)cc3)n[nH]2)cc(OC)c1 (centres undefined) [AZD4547]" label_value="condition met"
molecule="COc1cc(NC(C)CCCN)c2ncccc2c1 (centres undefined) [primaquine]" label_value="condition not met"
molecule="Cc1c(C)c2c(c(C)c1OC(=O)CCC(=O)OCCO)CC[C@@](C)(CCC[C@H](C)CCC[C@H](C)CCCC(C)C)O2 [tocofersolan]" label_value="condition not met"
molecule="CCN(CC)CCNC(=O)c1c(C)[nH]c(/C=C2\\C(=O)Nc3ccc(F)cc32)c1C [sunitinib]" label_value="condition met"
molecule=O=C1C(Cl)=C(NCCN2CCOCC2)C(=O)c2ncccc21 label_value="condition met"
molecule="CC(=O)OCC1=C(C(=O)O)N2C(=O)[C@@H](NC(=O)Cc3cccs3)[C@H]2SC1 [cephalothin]" label_value="condition met"
molecule="C[n+]1ccccc1C=NO [pralidoxime]" label_value="condition not met"
molecule="CC1(C)CCC(C)(C)c2cc(Cn3cccn3)c(/C=C/c3ccc(C(=O)O)cc3)cc21 [palovarotene]" label_value="condition not met"
molecule="C=C1C(=O)O[C@@H]2[C@H]3O[C@]3(C)CC/C=C(\\C)CC[C@@H]12 [parthenolide-(alternate-stereo)]" label_value="condition met"
molecule="COc1ccc(CCN(C)CCc2ccc(OC)c(OC)c2)cc1OC [YS-035]" label_value="condition not met"
molecule=Cn1cc(-c2ccc(F)c(C(F)(F)F)c2)nc1C1CCN(c2ncnc3[nH]ncc23)CC1 label_value="condition not met"
molecule="O=C(NOCCO)c1ccc2cncn2c1Nc1ccc(I)cc1F [GDC-0623]" label_value="condition met"
molecule="O=C(c1c(F)ccc(NS(=O)(=O)N2CC[C@@H](F)C2)c1F)c1c[nH]c2ncc(-c3cnc(C4CC4)nc3)cc12 [PLX8394]" label_value="condition met"
molecule="N[C@@H](C(=O)N[C@@H]1C(=O)N2C(C(=O)O)=C(Cl)CC[C@H]12)c1ccccc1 [loracarbef]" label_value="condition not met"
molecule=CC(C)(C=O)Cc1cc(C(C)(C)C)c(O)c(C(C)(C)C)c1 label_value="condition not met"
molecule="CNC(=O)c1cccc(-c2ccc3c(N4CCOC[C@@H]4C)nc(N4CCOC[C@@H]4C)nc3n2)c1 [AZD2014]" label_value="condition met"
molecule="[N-]=[N+]=CC(=O)CC[C@H](N)C(=O)O [6-diazo-5-oxo-L-norleucine]" label_value="condition not met"
molecule="c1cnc(NCc2ccc(CNc3ncccn3)cc2)nc1 [MSX-122]" label_value="condition not met"
